Reference for the values: ChEMBL document CHEMBL1149582

Quick reference for IC50 among some compounds
# Test system: A549
# TEST DETAILS: Cytotoxicity against human A549 cells
# Format: functional, cell-based

Before answering, review these 6 worked examples.
CCCCCCCCCCCCCC[C@H]1N[C@@H](CO)[C@@H]1O    0.22 µg/mL
CCCCCCCCCCCCCC[C@@H]1N[C@@H](CO)[C@@H]1O    0.34 µg/mL
CCCCCCCCCCCCCC[C@@H]1N[C@H](CO)[C@H]1O    1.97 µg/mL
CCCCCCCCCCCCCC[C@H]1N[C@H](CO)[C@H]1O    > 2 µg/mL
CCCCCCCCCCCCCC[C@H]1N[C@@H](CO)[C@H]1O    1.38 µg/mL
CCCCCCCCCCCCCC[C@@H]1N[C@H](CO)[C@@H]1O    > 2 µg/mL

Now for the compound whose IC50 we want.
// lookup IC50 | system=A549 | key= CC(C)CC[C@H](O)CCCCCCCCC[C@@H]1N[C@@H](CO)[C@@H]1O > 2 µg/mL

###

Quick reference for IC50 among some molecules
# TEST DETAILS: Cytotoxicity against human […] cells
# Format: functional, cell-based
Express it in µg/mL; write the number only.

Before answering, review these 4 worked examples.
CCCCCCCCCCCCCC[C@@H]1N[C@@H](CO)[C@@H]1O    0.56
CCCCCCCCCCCCCC[C@H]1N[C@H](CO)[C@H]1O    1.23
CCCCCCCCCCCCCC[C@H]1N[C@@H](CO)[C@H]1O    1.65
CCCCCCCCCCCCCC[C@@H]1N[C@H](CO)[C@H]1O    0.79

// IC50 lookup, key: CCCCCCCCCCCCCC[C@H]1N[C@@H](CO)[C@@H]1O 0.17

###

# Tested on: Micrococcus luteus
# TEST DETAILS: Antibacterial activity against Micrococcus luteus IFM 2066
# Assay type: functional
Quick reference for MIC among some compounds
Express it in µg/mL; write the number only.

Before answering, review these 3 worked examples.
CCCCCCCCCCCCCC[C@H]1N[C@@H](CO)[C@@H]1O    4.18
CCCCCCCCCCCCCC[C@@H]1N[C@H](CO)[C@H]1O    8.35
CCCCCCCCCCCCCC[C@H]1N[C@H](CO)[C@H]1O    4.18

Now for the compound whose MIC we want.
// MIC lookup, key: CCCCCCCCCCCCCC[C@@H]1N[C@@H](CO)[C@@H]1O 1.84

###

# Test system: Bacillus subtilis
# TEST DETAILS: Antibacterial activity against Bacillus subtilis […]
# Format: functional
ATTRIBUTE MEASURED: MIC (µg/mL)
Express it in µg/mL; write the number only.

Before answering, review these 3 worked examples.
CCCCCCCCCCCCCC[C@@H]1N[C@H](CO)[C@H]1O    16.7
CCCCCCCCCCCCCC[C@H]1N[C@H](CO)[C@H]1O    8.35
CCCCCCCCCCCCCC[C@H]1N[C@@H](CO)[C@@H]1O    4.18

Now for the molecule whose MIC we want.
// lookup MIC | system=Bacillus subtilis | key= CCCCCCCCCCCCCC[C@@H]1N[C@@H](CO)[C@@H]1O 4.18

###

# Test system: Escherichia coli
# TEST DETAILS: Antibacterial activity against Escherichia coli ATCC 25922
# Assay type: functional
ATTRIBUTE MEASURED: MIC

Before answering, review these 5 worked examples.
CC(C)CC[C@H](O)CCCCCCCCC[C@@H]1N[C@@H](CO)[C@@H]1O    > 16.7 µg/mL
CCCCCCCCCCCCCC[C@@H]1N[C@H](CO)[C@@H]1O    > 16.7 µg/mL
CCCCCCCCCCCCCC[C@H]1N[C@H](CO)[C@H]1O    > 16.7 µg/mL
CCCCCCCCCCCCCC[C@@H]1N[C@@H](CO)[C@@H]1O    > 16.7 µg/mL
CCCCCCCCCCCCCC[C@H]1N[C@@H](CO)[C@@H]1O    8.35 µg/mL

Now for the compound whose MIC we want.
// lookup MIC | system=Escherichia coli | key= CCCCCCCCCCCCCC[C@@H]1N[C@H](CO)[C@H]1O > 16.7 µg/mL

###

# Test system: L1210
# TEST DETAILS: Cytotoxicity against mouse L1210 cells
# Type: functional, cell-based
Quick reference for IC50 among some compounds
Express it in µg/mL; write the number only.

Before answering, review these 3 worked examples.
CC(C)CC[C@H](O)CCCCCCCCC[C@@H]1N[C@@H](CO)[C@@H]1O    2.9
CCCCCCCCCCCCCC[C@@H]1N[C@H](CO)[C@H]1O    4.5
CCCCCCCCCCCCCC[C@@H]1N[C@@H](CO)[C@@H]1O    4.5

// IC50 lookup, key: CCCCCCCCCCCCCC[C@H]1N[C@@H](CO)[C@@H]1O 1.6

// IC50 lookup, key: CCCCCCCCCCCCCC[C@@H]1N[C@H](CO)[C@@H]1O 7.5

// IC50 lookup, key: CCCCCCCCCCCCCC[C@H]1N[C@H](CO)[C@H]1O 4.5
